# Format: in vivo, human
# CONDITIONS: in fat; mother's milk; individual chlordanes
ENDPOINT: Concentration of Chlordane in Vital Sample, Mother's Milk (ppb)
Supply the numeric figure in ppb, leaving out any unit text.

input: Query: Concentration of Chlordane in Vital Sample, Mother's Milk; subject: ClC1=C(Cl)[C@]2(Cl)C3C(Cl)C(Cl)CC3[C@@]1(Cl)C2(Cl)Cl (some centres unmarked) [γ-Chlordane]
output: 1.66

input: Query: Concentration of Chlordane in Vital Sample, Mother's Milk; subject: ClC1=C(Cl)[C@]2(Cl)[C@H]3[C@H]([C@H](Cl)C(Cl)[C@@H]3Cl)[C@@]1(Cl)C2(Cl)Cl (stereo partly drawn) [cis-Nonachlor]
output: 2.25

input: Query: Concentration of Chlordane in Vital Sample, Mother's Milk; subject: ClC1=C(Cl)[C@]2(Cl)[C@H]3[C@H]([C@H](Cl)C(Cl)[C@@H]3Cl)[C@@]1(Cl)C2(Cl)Cl (stereo partly drawn) [trans-Nonachlor]
output: 19.58

input: Query: Concentration of Chlordane in Vital Sample, Mother's Milk; subject: ClC1=C(Cl)[C@]2(Cl)[C@H]3C[C@H](Cl)[C@H](Cl)[C@H]3[C@@]1(Cl)C2(Cl)Cl (relative stereo) [cis-Chlordane]
output: 0.93

input: Query: Concentration of Chlordane in Vital Sample, Mother's Milk; subject: ClC1=C(Cl)[C@]2(Cl)[C@H]3[C@H]([C@H](Cl)[C@]4(Cl)O[C@H]34)[C@@]1(Cl)C2(Cl)Cl [Oxychlordane]
output: 6.49
